For each entry below, report its Relative CL emission value.
experiment: Chemiluminescence of adamantylidene-dioxetane luminophores 5b-9b in PBS 7.4; format: physicochemical; settings: relative to 5b
Give your answer as a number; write no unit.

Which Relative CL emission value is on record for COC(=O)/C=C/c1ccc(C2(OC)OOC23C2CC4CC(C2)CC3C4)cc1O (centres unmarked) ?
724

Next molecule: COC1(c2cccc(O)c2Cl)OOC12C1CC3CC(C1)CC2C3 (centres unmarked) [Phenol 5b, reference compound]
1

Next molecule: COC(=O)/C=C/c1ccc(C2(OC)OOC23C2CC4CC(C2)CC3C4)c(Cl)c1O (centres unmarked)
780

Next molecule: COC1(c2ccc(/C=C/C#N)c(O)c2Cl)OOC12C1CC3CC(C1)CC2C3 (centres unmarked)
3043

Next molecule: COC1(c2ccc(/C=C/C#N)c(O)c2)OOC12C1CC3CC(C1)CC2C3 (centres unmarked)
2295

----------
assay: Absorbance and fluorescence of phenol-benzoate derivatives in PBS 7.4; assay type: physicochemical; settings: PBS 7.4
ENDPOINT_LABEL: ΦFluorescence (%)
Value expressed in %; do not type the unit.

Which ΦFluorescence value is on record for COC(=O)c1ccc(/C=C/C#N)c(O)c1Cl [Benzoate 9a] ?
29.8

Next molecule: COC(=O)/C=C/c1ccc(C(=O)OC)cc1O [Benzoate 6a]
0.5

Next molecule: COC(=O)/C=C/c1ccc(C(=O)OC)c(Cl)c1O [Benzoate 7a]
5.2

Next molecule: COC(=O)c1ccc(/C=C/C#N)c(O)c1 [Benzoate 8a]
7

----------
assay: Absorbance and fluorescence of phenol-benzoate derivatives in PBS 7.4; type: physicochemical; conditions: PBS 7.4
ENDPOINT_LABEL: ε 400 nm
Give your answer as a number; write no unit.

Which ε 400 nm value is on record for COC(=O)c1ccc(/C=C/C#N)c(O)c1 [Benzoate 8a] ?
2200

Next compound: COC(=O)c1ccc(/C=C/C#N)c(O)c1Cl [Benzoate 9a]
7700

Next compound: COC(=O)/C=C/c1ccc(C(=O)OC)cc1O [Benzoate 6a]
1200

Next compound: COC(=O)/C=C/c1ccc(C(=O)OC)c(Cl)c1O [Benzoate 7a]
7400

----------
For each entry below, report its λ maxCL [nm] value.
experiment: Chemiluminescence of adamantylidene-dioxetane luminophores 5b-9b in PBS 7.4; assay type: physicochemical; settings: PBS 7.4
Value expressed in nm; do not type the unit.

Which λ maxCL [nm] value is on record for COC(=O)/C=C/c1ccc(C2(OC)OOC23C2CC4CC(C2)CC3C4)c(Cl)c1O (centres unmarked) ?
540

Next compound: COC1(c2ccc(/C=C/C#N)c(O)c2Cl)OOC12C1CC3CC(C1)CC2C3 (centres unmarked)
525

Next compound: COC(=O)/C=C/c1ccc(C2(OC)OOC23C2CC4CC(C2)CC3C4)cc1O (centres unmarked)
540

Next compound: COC1(c2cccc(O)c2Cl)OOC12C1CC3CC(C1)CC2C3 (centres unmarked) [Phenol 5b, reference compound]
470

Next compound: COC1(c2ccc(/C=C/C#N)c(O)c2)OOC12C1CC3CC(C1)CC2C3 (centres unmarked)
525

----------
experiment: Absorbance and fluorescence of phenol-benzoate derivatives in PBS 7.4; type: physicochemical; conditions: PBS 7.4, relative to 6a
For each entry below, report its Relative fluorescence emission value.
Give your answer as a number; write no unit.

Which Relative fluorescence emission value is on record for COC(=O)/C=C/c1ccc(C(=O)OC)cc1O [Benzoate 6a] ?
1

Next molecule: COC(=O)c1ccc(/C=C/C#N)c(O)c1Cl [Benzoate 9a]
18.0

Next molecule: COC(=O)/C=C/c1ccc(C(=O)OC)c(Cl)c1O [Benzoate 7a]
10.6

Next molecule: COC(=O)c1ccc(/C=C/C#N)c(O)c1 [Benzoate 8a]
4.7
